target: RNA samples (Chi18 or HCV IRES); assay: Droplet Digital Polymerase Chain Reaction (ddPCR) assay of RNA protection; details: 50 mM Tris buffer pH 11.4, 16 hrs at 30° C. for Chi18 or 42° C. for HCV; table does not say which RNA; 600 µM to 0.018 µM compound, 2% DMSO; read-out: EC50 Values Obtained from the ddPCR Assay
Entries annotated with measured pEC50
By convention, pEC50 is the negative base-10 log of a molar concentration.

Reference set (3 entries):
compound: C[C@H]1c2ccc(NC(=O)CCC(=O)NC[C@H]3CCB(O)O3)c(O)c2C(=O)C2=C(O)[C@]3(O)C(=O)C(C(N)=O)=C(O)[C@@H](N(C)C)[C@@H]3[C@@H](O)[C@@H]21 (racemic) [PF-06968488]
pEC50: 3.72
--
compound: CC1(C)COC(c2cccc(B(Oc3cccc4cccnc34)c3cccc(F)c3)c2)=N1 [PF-06956596]
pEC50: 3.52
--
compound: C=C(CN(C)Cc1ccccc1)[B-](F)(F)F [PF-06840997]
pEC50: 3.51

Let us examine a further case.
INPUT: Sample O=C(OB(c1cccc(F)c1)c1cccc(F)c1)c1ncccc1O [PF-06956417] — what was its pEC50?
OUTPUT: 3.37

* * *

biological target: RNA samples (Chi18 or HCV IRES); assay: Droplet Digital Polymerase Chain Reaction (ddPCR) assay of RNA protection; settings: 50 mM Tris buffer pH 11.4, 16 hrs at 30° C. for Chi18 or 42° C. for HCV; table does not say which RNA; 600 µM to 0.018 µM compound, 2% DMSO; read-out: EC50 Values Obtained from the ddPCR Assay
Listed here are compounds together with their documented EC50.
Respond with the bare value in µM.

compound: Cc1cc(Oc2ccnc(NCCN)n2)cc2c1C(CC(=O)O)OB2O (stereo not shown)
numeric_result: 114
//
compound: C[C@H]1c2ccc(NCCC(=O)Nc3ccc4c(c3)B(O)OCC4)c(O)c2C(=O)C2=C(O)[C@]3(O)C(=O)C(C(N)=O)=C(O)[C@@H](N(C)C)[C@@H]3[C@@H](O)[C@@H]21
numeric_result: 166
//
compound: CN(C)/C(O)=C/C1=[O+][B-](F)(F)OC=C1c1ccccc1
numeric_result: 400

INPUT: Query for RNA samples (Chi18 or HCV IRES): what EC50 does the record show for C[C@H]1c2ccc(NC(=O)c3ccc4c(c3)B(O)OC4(C)C)c(O)c2C(=O)C2=C(O)[C@]3(O)C(=O)C(C(N)=O)=C(O)[C@@H](N(C)C)[C@@H]3[C@@H](O)[C@@H]21 ?
OUTPUT: 162

* * *

target: RNA samples (Chi18 or HCV IRES); assay: Droplet Digital Polymerase Chain Reaction (ddPCR) assay of RNA protection; details: 50 mM Tris buffer pH 11.4, 16 hrs at 30° C. for Chi18 or 42° C. for HCV; table does not say which RNA; 600 µM to 0.018 µM compound, 2% DMSO; read-out: EC50 Values Obtained from the ddPCR Assay
# pEC50 values compiled below
The meaning of pEC50 here: minus log10 of the concentration in molar units.

item_smiles: CN1CCN(Cc2ccc(B(Oc3cccc4cccnc34)c3ccc(C#N)c(Cl)c3)cc2F)CC1
system_name: RNA samples (Chi18 or HCV IRES)
pEC50: 3.76

item_smiles: C[C@H]1c2ccc(NC(=O)c3ccc4c(c3)B(O)OC4)c(O)c2C(=O)C2=C(O)[C@]3(O)C(=O)C(C(N)=O)=C(O)[C@@H](N(C)C)[C@@H]3[C@@H](O)[C@@H]21
system_name: RNA samples (Chi18 or HCV IRES)
pEC50: 3.41

item_smiles: OB(c1ccc(Cl)cc1)c1ccc(Cl)cc1
system_name: RNA samples (Chi18 or HCV IRES)
pEC50: 3.45

Consider the record given below.
INPUT: Can you look up the measured pEC50 of Clc1cc2c(cc1Cl)OB(c1ccc(Br)cc1)O2 for me?
OUTPUT: 3.32
